# System: SR
# assay_remarks: NCI tumour cell line growth inhibition, 48 h
The source made the active and inactive calls. Rule as the data show it: active = GI50 up to about 1.1 µM and inactive = higher.
Pick from y for active, n for inactive when you respond.

Please share the test call associated with O=C1c2cccc3cccc(c23)C(=O)N1CCCNCCCCNCCCN1C(=O)c2cccc3cccc(c23)C1=O .
y

Please share the test call associated with CC[C@]12C=CCN3CC[C@@]4(c5cc(Br)c(OC)cc5N(C)[C@H]4[C@@](O)(C(=O)N[C@@H](Cc4ccc(O)cc4)C(=O)OC)[C@@H]1O)[C@@H]32 .
n

Please share the test call associated with Cc1oc2nc(N(C)C)n3nnnc3c2c1C .
n

Please share the test call associated with CCOC(=O)C(=CNc1ccc(F)c(F)c1)C(=O)OCC .
n

Please share the test call associated with C/C(=C(/C)c1ccc(O)cc1)c1ccc(O)cc1 [DIMETHYLSTILBESTROL] .
n

Please share the test call associated with NC(=O)C(N)CC12CC3CC(CC(C3)C1)C2 (stereo not given) .
n

Please share the test call associated with O=C(Oc1cc(=O)c(OC(=O)c2ccccc2)co1)c1ccccc1 .
n

Please share the test call associated with CCOC(=O)N1CCC2(CC1)CC(=O)N(Nc1ccccc1)C2=O .
n

Please share the test call associated with O=c1cc(NNCc2ccccc2)[nH]c(=O)[nH]1 .
n

Please share the test call associated with Cc1cccc2c1Oc1cc(Cl)ccc1C2NC(=O)CCN1CCCCC1 (stereo not given) .
n

----------
# Tested on: SW-620
# assay_remarks: NCI tumour cell line growth inhibition, 48 h
Calls of active or inactive are those of the source. Cut-off read from the data, not from the text of the source: active = GI50 up to about 1.1 µM and inactive = higher.
Please respond with reported GI50 for every item in the list.

Write down GI50 measured for item Clc1ccc(Cc2nc3cc(Cl)ccc3o2)cc1
56.4 µM (inactive)

Write down GI50 measured for item CCOC(=O)/C(=C/c1ccccc1)N(CC)CC
> 100 µM (inactive)

Write down GI50 measured for item CCOC(=O)N1CCC2(CC1)CC(=O)N(Nc1ccccc1)C2=O
> 100 µM (inactive)

Write down GI50 measured for item Brc1ccc(-c2nnc(-c3nn(-c4ccccc4)c4nc5ccccc5nc34)o2)cc1
> 100 µM (inactive)

Write down GI50 measured for item Cc1nc(N)c(N2CCN([N+](=O)[O-])CC2)c(O)n1
> 100 µM (inactive)

Write down GI50 measured for item CCOc1ccc(/C=C2\N=C(c3ccc([N+](=O)[O-])cc3)OC2=O)cc1
> 100 µM (inactive)

Write down GI50 measured for item Cc1cc(O)c2c(c1)C(C1OC(CO)C(O)C(O)C1O)c1cc(O)cc(O)c1C2=O (stereo not given)
> 100 µM (inactive)

Write down GI50 measured for item CCCCCCCCCC[S+]([O-])CC(CO)NC(=O)/C=C/c1c(C)nc(O)nc1O (stereo not given)
0.535 µM (active)

Write down GI50 measured for item CNC(=S)/C(C#N)=C(\N)N1CCN(C)CC1
> 100 µM (inactive)

Write down GI50 measured for item O=C(c1ccccc1)N1CCN(C(=S)NC2CCCCC2)C1=S
21.6 µM (inactive)

----------
# Tested on: HL-60
# assay_remarks: NCI tumour cell line growth inhibition, 48 h
Calls of active or inactive are those of the source. No stated cut-off is given here; in the data, active = GI50 up to about 1.1 µM and inactive = higher.
Pick from t for active, f for inactive when you respond.

Please share the test call associated with CCOc1ccc(/C=C2\N=C(c3ccc([N+](=O)[O-])cc3)OC2=O)cc1 .
f

Please share the test call associated with CC(=O)Oc1c(-c2ccccc2)sc2ccccc12 .
f

Please share the test call associated with c1cc(CSP234N5CCN2CCN3CCN4CC5)cc(CSP234N5CCN2CCN3CCN4CC5)c1 .
f

Please share the test call associated with Clc1ccc2c(c1)C1C(CO2)C(c2ccccc2)=NN1c1ccccc1 (stereo not given) .
f

Please share the test call associated with CCOC(=O)N1N(c2ccccc2)C(=O)C1(c1ccccc1)c1ccccc1 .
f

Please share the test call associated with CC(=O)NC1C(OC2C(CO)OC(OCC3OC(n4ccc(N)nc4=O)C(O)C3O)C(NC(C)=O)C2O)OC(CO)C(O)C1O (stereo not given) .
f

Please share the test call associated with CNC(=O)c1ccccc1[S+]1c2cccc3cccc(c23)C(=O)N1C (stereo not given) .
f

Please share the test call associated with N=C(N)/N=C(/C=C/c1ccccc1)CC1OC(=O)c2ccccc21 (stereo not given) .
f

Please share the test call associated with CNC(=S)/C(C#N)=C(\N)N1CCN(C)CC1 .
f

Please share the test call associated with CCOC(=O)COC1=Nc2cc(OC)c(OC)c3nc(Cl)cc(c23)C1=O .
t

Where do these numbers come from? They come from ChEMBL document CHEMBL1201862.
